Sourced from paper PMC6211316

Test System: α-Glucosidase (Saccharomyces cerevisiae, UniProt P53341)
Construct: purchased Sigma Aldrich G0660-750UN
Sequence (P53341 whole entry): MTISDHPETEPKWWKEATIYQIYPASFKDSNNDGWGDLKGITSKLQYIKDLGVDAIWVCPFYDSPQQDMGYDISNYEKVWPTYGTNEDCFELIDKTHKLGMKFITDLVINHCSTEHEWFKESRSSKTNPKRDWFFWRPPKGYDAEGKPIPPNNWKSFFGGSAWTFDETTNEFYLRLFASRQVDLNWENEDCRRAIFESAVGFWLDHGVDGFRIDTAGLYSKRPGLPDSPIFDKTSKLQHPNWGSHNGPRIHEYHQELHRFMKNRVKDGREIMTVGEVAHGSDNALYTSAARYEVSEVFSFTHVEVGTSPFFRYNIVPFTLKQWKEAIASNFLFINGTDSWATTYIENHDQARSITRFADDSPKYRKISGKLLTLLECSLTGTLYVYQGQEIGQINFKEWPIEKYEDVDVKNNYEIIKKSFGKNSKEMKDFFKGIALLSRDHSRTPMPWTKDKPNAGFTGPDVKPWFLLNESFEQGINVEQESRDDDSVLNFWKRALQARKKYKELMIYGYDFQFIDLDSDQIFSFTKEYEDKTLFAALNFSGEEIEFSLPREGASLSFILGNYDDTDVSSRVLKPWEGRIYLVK
Experiment Summary: biochemical
Format: biochemical
Experimental Parameters: mean ± SD (n = 3); read-out: α-Glucosidase inhibitory activity IC50 Value
Define the label as condition met when IC50 is strictly less than 40 µM and as condition not met in all remaining cases.

Worked examples follow.
O=c1oc2c(O)c(O)ccc2cc1-c1ccc(O)c(O)c1 = condition not met
Cc1ccc(-c2cc3c(O)cc(O)cc3oc2=O)cc1 = condition met
COc1ccc(-c2cc3ccc(O)cc3oc2=O)cc1OC = condition not met
O=c1oc2cc(O)cc(O)c2cc1-c1ccc(Br)cc1 = condition not met
O=c1oc2c(O)c(O)ccc2cc1-c1ccc(O)cc1 = condition met
O=c1oc2cc(O)ccc2cc1-c1ccc(O)cc1 [Compound 12, 7-Hydroxy-3-(4-hydroxyphenyl)-coumarin] = condition met
Cc1ccccc1-c1cc2ccc(O)cc2oc1=O [Compound 11, 7-Hydroxy-3-(2-methylphenyl)-coumarin] = condition met
O=c1oc2ccc(O)cc2cc1-c1ccc(O)cc1 [Compound 17, 6-Hydroxy-3-(4-hydroxyphenyl)-coumarin] = condition met

Ask: Input O=c1oc2ccccc2cc1-c1ccc(O)cc1 [Compound 6, 3-(4-Hydroxyphenyl)-coumarin] ; condition: IC50 strictly below 40 µM. Does it hold?
Result: condition not met

Ask: Query O=c1oc2cc(O)ccc2cc1-c1ccc(Br)cc1 [Compound 44, 7-Hydroxy-3-(4-brominephenyl)-coumarin] next
Result: condition not met

Ask: Continue with O=c1oc2c(O)cccc2cc1-c1ccc(Br)cc1 [Compound 45, 8-Hydroxy-3-(4-brominephenyl)-coumarin]
Result: condition not met

Ask: Here is the next compound: COc1ccc(-c2cc3ccc(O)cc3oc2=O)cc1 [Compound 24, 7-Hydroxy-3-(4-methoxyphenyl)-coumarin]
Result: condition met

Ask: Likewise for O=c1oc2cc(O)ccc2cc1-c1ccc(F)cc1 [Compound 18, 7-Hydroxy-3-(4-fluorophenyl)-coumarin] ?
Result: condition not met

Ask: Can you check O=c1oc2c(O)c(O)ccc2cc1-c1ccc(Br)cc1 next?
Result: condition met

Ask: Repeat for the following compound: Cc1ccc(-c2cc3ccc(O)cc3oc2=O)cc1 [Compound 9, 7-Hydroxy-3-(4-methylphenyl)-coumarin]
Result: condition not met

Ask: Repeat for the following compound: O=c1oc2ccccc2cc1-c1ccc(Br)cc1
Result: condition not met

Ask: Please do the same for O=c1oc2cc(O)cc(O)c2cc1-c1ccc(O)cc1 as well.
Result: condition met

Ask: Another: COc1ccc(-c2cc3c(O)cc(O)cc3oc2=O)cc1
Result: condition met
